Reported pEC50 values follow for various compounds
TEST_METHOD_NOTES: Inhibition of Influenza A virus H3N2 A/X-31 hemagglutinin 3 D1122N expressed in HeLa cells assessed as polykaryon formation preincubated for 15 mins and further incubated for 15 mins with acidic buffer containing compounds at pH 5.6 by giemsa staining based microscopic analysis
Assay type: cell-based, Influenza A virus (A/X-31(H3N2))
pEC50: −log10 of the molar value.

{"columns": ["COMPOUND", "pEC50"],
 "data": [
  ["Cc1c(C(=O)NN2C(=O)C(C)SC23CCCCC3)[nH]c2ccc(Cl)cc12 (configuration not stated)", "< 4.60"],
  ["Cc1nc2sccn2c1C(=O)NN1C(=O)C(C)SC12CCC(C)CC2 (configuration not stated)", "< 4.60"],
  ["CCOC(=O)c1c(CSc2ccccc2)n(C)c2cc(Br)c(O)c(CN(C)C)c12 [UMIFENOVIR]", "< 3.70"],
  ["CCC1CCC2(CC1)SC(C)C(=O)N2NC(=O)c1[nH]c2ccc(Cl)cc2c1C (configuration not stated)", "≤ 4.68"],
  ["Cc1c(C(=O)NN2C(=O)C(C)SC23CCC(C)CC3)[nH]c2ccc(Cl)cc12 (configuration not stated)", "< 4.60"],
  ["CC(C)(C)c1cc(O)ccc1O [E319]", "< 3.40"],
  ["Cc1c(C(=O)NN2C(=O)C(C)SC23CCCC(C)C3)[nH]c2ccc(Cl)cc12 (configuration not stated)", "< 4.60"]
]}
